- ASSAY_DETAILS: Cmax in streptozotocin-induced C57BL/6J mouse diabetic neuropathy model at 10 mg/kg, po by LC-MS/MS analysis
- Type: ADME, organism-based
- Set-up: dose 10 mg/kg, route oral
- DETAILS: in vivo
READOUT_KIND: Cmax (µM)
Numbers only, in µM.

| MOLECULE | UNIT_OF_MEASURE | VALUE |
| --- | --- | --- |
| COc1ccccc1OC[C@H](O)CO | µM | 0.741 |

Query :: For COc1ccccc1OCC(O)CO (racemic) , what is its reported Cmax?
Result :: 5.27

###

- ASSAY_DETAILS: Cmax in C57BL/6J mouse at 10 mg/kg, po by LC-MS/MS analysis
- Assay type: ADME, organism-based
- Parameters: dose 10 mg/kg, route oral
- DETAILS: in vivo
READOUT_KIND: Cmax

| COMPOUND | VALUE |
| --- | --- |
| COc1ccccc1OC[C@H](O)CO | 440 nM |

Query :: For COc1ccccc1OCC(O)CO (racemic) , what is its reported Cmax?
Result :: 5280 nM
